List of OD450 at 0.001 nM values.
system-under-test: T1, monkey GPC3-His protein (monkey)
T1 construct: Bought recombinant protein; also called monkey GPC3 protein
protocol-notes: ELISA, monkey GPC3-His coated;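 also: Plate-coated antigen at 1 µg/mL, antibody binding 2 h at 37 °C, detected with HRP-labeled secondary antibody and TMB, absorbance at 450 nm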
readout: OD450 at 0.001 nM (OD450)

[[record]]
binder = "F2.169.2 (antibody, human IgG1, kappa, V domains shown, Human-murine chimeric antibody) VH: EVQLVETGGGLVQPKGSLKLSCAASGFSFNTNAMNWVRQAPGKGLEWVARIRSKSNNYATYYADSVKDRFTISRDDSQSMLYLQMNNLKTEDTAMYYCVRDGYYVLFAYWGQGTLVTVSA VL: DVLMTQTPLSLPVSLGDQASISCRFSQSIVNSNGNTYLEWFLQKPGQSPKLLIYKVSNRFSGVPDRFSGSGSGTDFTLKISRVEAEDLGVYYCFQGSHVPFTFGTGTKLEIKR"
unit_symbol = "OD450"
assay_result = 0.07

[[record]]
binder = "F4.26.1 (antibody, human IgG1, kappa, V domains shown, Human-murine chimeric antibody) VH: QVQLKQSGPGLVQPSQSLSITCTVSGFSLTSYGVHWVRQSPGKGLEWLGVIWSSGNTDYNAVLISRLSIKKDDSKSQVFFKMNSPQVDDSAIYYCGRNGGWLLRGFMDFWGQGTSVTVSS VL: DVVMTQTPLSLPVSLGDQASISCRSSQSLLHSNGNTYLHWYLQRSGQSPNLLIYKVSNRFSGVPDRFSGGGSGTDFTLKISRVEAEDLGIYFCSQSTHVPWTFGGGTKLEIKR"
unit_symbol = "OD450"
assay_result = 0.07

[[record]]
binder = "F1.2.14 (antibody, human IgG1, kappa, V domains shown, Human-murine chimeric antibody) VH: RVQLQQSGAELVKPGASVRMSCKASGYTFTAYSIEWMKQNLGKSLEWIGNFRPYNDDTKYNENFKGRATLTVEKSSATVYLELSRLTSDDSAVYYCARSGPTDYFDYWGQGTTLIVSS VL: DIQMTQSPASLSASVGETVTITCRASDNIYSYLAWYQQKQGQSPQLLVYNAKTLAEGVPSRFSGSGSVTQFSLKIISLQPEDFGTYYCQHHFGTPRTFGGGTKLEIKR"
unit_symbol = "OD450"
assay_result = 0.05

[[record]]
binder = "F1.110.24 (antibody, human IgG1, kappa, V domains shown, Human-murine chimeric antibody) VH: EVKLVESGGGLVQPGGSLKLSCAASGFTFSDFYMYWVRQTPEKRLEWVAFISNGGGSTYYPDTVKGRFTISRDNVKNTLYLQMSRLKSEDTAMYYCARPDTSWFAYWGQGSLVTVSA VL: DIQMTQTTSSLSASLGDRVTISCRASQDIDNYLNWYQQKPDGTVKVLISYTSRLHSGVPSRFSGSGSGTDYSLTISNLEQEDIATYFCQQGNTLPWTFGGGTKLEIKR"
unit_symbol = "OD450"
assay_result = 0.05

[[record]]
binder = "F1.120.16 (antibody, human IgG1, kappa, V domains shown, Human-murine chimeric antibody) VH: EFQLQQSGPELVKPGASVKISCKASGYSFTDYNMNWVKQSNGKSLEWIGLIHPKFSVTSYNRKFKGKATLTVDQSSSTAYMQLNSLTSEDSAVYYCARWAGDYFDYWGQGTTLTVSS VL: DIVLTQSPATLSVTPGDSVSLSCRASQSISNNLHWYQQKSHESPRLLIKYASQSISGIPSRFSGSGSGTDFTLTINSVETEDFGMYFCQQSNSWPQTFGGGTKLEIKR"
unit_symbol = "OD450"
assay_result = 0.07

[[record]]
binder = "F2.92.1 (antibody, human IgG1, kappa, V domains shown, Human-murine chimeric antibody) VH: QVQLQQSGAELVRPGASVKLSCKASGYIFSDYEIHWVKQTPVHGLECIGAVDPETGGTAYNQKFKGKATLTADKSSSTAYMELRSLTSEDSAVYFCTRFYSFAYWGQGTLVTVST VL: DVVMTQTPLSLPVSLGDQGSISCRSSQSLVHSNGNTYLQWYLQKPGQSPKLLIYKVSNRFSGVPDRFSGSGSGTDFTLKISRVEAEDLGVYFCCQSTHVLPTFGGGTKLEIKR"
unit_symbol = "OD450"
assay_result = 0.27

[[record]]
binder = "F1.118.4 (antibody, human IgG1, kappa, V domains shown, Human-murine chimeric antibody) VH: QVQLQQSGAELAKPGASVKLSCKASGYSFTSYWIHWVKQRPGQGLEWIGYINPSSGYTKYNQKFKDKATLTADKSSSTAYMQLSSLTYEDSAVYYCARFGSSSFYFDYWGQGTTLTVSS VL: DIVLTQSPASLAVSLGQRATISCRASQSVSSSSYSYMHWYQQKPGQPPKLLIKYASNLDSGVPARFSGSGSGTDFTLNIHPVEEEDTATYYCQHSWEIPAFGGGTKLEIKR"
unit_symbol = "OD450"
assay_result = 0.08

[[record]]
binder = "F2.154.1 (antibody, human IgG1, kappa, V domains shown, Human-murine chimeric antibody) VH: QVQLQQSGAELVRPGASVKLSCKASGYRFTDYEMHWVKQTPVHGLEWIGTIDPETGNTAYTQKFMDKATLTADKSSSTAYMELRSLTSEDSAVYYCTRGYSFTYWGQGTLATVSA VL: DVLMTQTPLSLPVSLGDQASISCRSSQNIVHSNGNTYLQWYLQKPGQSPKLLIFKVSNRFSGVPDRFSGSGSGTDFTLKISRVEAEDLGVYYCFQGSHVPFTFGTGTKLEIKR"
unit_symbol = "OD450"
assay_result = 0.1

[[record]]
binder = "F1.3.9 (antibody, human IgG1, kappa, V domains shown, Human-murine chimeric antibody) VH: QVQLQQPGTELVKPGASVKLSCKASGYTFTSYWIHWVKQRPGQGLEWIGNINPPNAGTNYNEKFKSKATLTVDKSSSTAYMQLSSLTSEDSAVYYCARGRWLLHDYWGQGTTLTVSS VL: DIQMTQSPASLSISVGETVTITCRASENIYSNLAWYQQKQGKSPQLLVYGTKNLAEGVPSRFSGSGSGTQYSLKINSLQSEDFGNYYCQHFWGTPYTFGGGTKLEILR"
unit_symbol = "OD450"
assay_result = 0.05

[[record]]
binder = "F1.115.8 (antibody, human IgG1, kappa, V domains shown, Human-murine chimeric antibody) VH: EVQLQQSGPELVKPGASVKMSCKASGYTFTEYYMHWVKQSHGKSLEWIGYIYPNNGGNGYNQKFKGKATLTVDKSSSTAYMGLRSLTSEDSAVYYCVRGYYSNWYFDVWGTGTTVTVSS VL: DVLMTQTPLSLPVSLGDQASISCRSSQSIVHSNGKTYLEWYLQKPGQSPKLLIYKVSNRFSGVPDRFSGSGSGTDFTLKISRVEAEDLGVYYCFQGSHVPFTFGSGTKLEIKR"
unit_symbol = "OD450"
assay_result = 0.07

